# growth values compiled below
Test system: NCI-H522 lung
TEST_DETAILS: NCI-60 one-dose screen, 48 h (100 = growth as untreated, 0 = no growth, -100 = all killed)
PARTICULARS: 10 µM
Description: Growth inhibition of the NCI-H522 human Non-Small Cell Lung tumor cell line is measured as a screen for anti-cancer activity. Cells are grown in 96 well plates and exposed to the test compound for 48 hours. Compounds are tested at a single concentration, which is 10^-5 M for most compounds. The reported endpoint is percent growth (GI% or GIPRCNT), where numbers from 0 - 100% represent growth inhibition, and numbers from -100% - 0 represent cell death. […]
This is part of a sample that, as a whole, favours compounds with a hit. Of some 83,000 tested, about 20% had one in any assay. Active and inactive are the calls of the source. Rule for the calls: active = growth percent below 10; inactive = the rest.

Solved cases below.
Entry under review: Cc1ccc(C(=O)Nc2ccc(CN3CCN(C)CC3)c(C(F)(F)F)c2)cc1C#Cc1cnc(N)c2ccc(C#N)cc12 . Reported growth?
60.6% (inactive)

Entry under review: CN1CCN(Cc2ccc(NC(=O)c3ccc(C#Cc4c(N)ncc5ccc(F)cc45)cc3)cc2C(F)(F)F)CC1 . Reported growth?
-85.2% (active)

More entries:
Entry under review: OC(c1ccccc1)(c1ccccc1)C(F)(F)F . Reported growth?
84.6% (inactive)

Entry under review: COc1ccccc1C(=O)Nc1cccc(-c2cc(=O)c3c(OC)c(OC)c(OC)cc3o2)c1 . Reported growth?
44.3% (inactive)

Entry under review: CCCCCCCCC/C(=N\NC(=O)c1ccncc1)c1ccc(O)c(O)c1O . Reported growth?
36% (inactive)

Entry under review: COc1ccc(/C(=C(\c2ccccc2)[N+](=O)[O-])c2ccc(OCCN3CCCC3)cc2)cc1 . Reported growth?
83.7% (inactive)

Entry under review: N=C(N)c1ccc(-c2ccc(-c3ccc(F)cc3)s2)cc1 . Reported growth?
-58.9% (active)

Data origin, for the record: PubChem BioAssay (NCI)
